The origin of these recorded values is patent US9296741B2.

measurement description: Human liver microsome stability assay
Type: in vitro ADME
measurement context: both sexes, human, microsomes, pH 7.4
readout name: half-life at 0.5 μM (min)
Numeric answer only, unit min assumed.

Consider the worked cases shown below.
Cn1cc(-c2cc(S(C)(=O)=O)ccc2Oc2ccc3ccncc3c2)c2cc[nH]c2c1=O: 9
Cn1cc(-c2cc(S(C)(=O)=O)ccc2OC2CCC2)c2cc[nH]c2c1=O: 79
CCNC(=O)c1cc2c(-c3cc(S(C)(=O)=O)ccc3Oc3ccc(F)cc3F)cn(C)c(=O)c2[nH]1: 72

Request: Recorded half-life at 0.5 μM of Cn1cc(-c2cc(S(=O)(=O)N3CCCC3)ccc2OCC2CC2(F)F)c2cc[nH]c2c1=O (stereo not shown) , please.
Response: 3
